System: Raji
Test: Cytotoxicity against human Raji cells assessed as inhibition of cell growth incubated for 72 hrs by CellTiter-Glo luminescence assay
Type: functional, cell-based
pEC50: −log10 of the molar value.
ASSAY METRIC: pEC50

                               entry_smiles  result
0  Cc1ccc(-c2nc3ccccc3s2)cc1NC(=O)c1cc([N+](=O)[O-])c(N2CCN(C)CC2)cc1Cl  < 4.60

====

Assay: Metabolic stability in […] mouse liver microsomes assessed as intrinsic clearance at 20 uM measured after 2 hrs by UPLC-MS analysis
Assay type: ADME, Microsome
Settings: read-out: CLH
ASSAY METRIC: CLint scaled at 20 µM

>>> df
                               entry_smiles          result
0  Cc1ccc(-c2nc3ccccc3s2)cc1NC(=O)c1cc([N+](=O)[O-])c(N2CCN(C)CC2)cc1Cl  < 14 mL/min/kg
